Ref: ChEMBL document CHEMBL5303573

# Protocol summary: The drug is tested on Bacteroides xylanisolvens strain: DSM18836 for biotransformation. The drug concentrations were measured before and after a 12-h incubation by liquid-chromatography-coupled mass spectrometry (LC–MS)
# Stated conditions: 2 µM
Metric: Bacterial Biotransformation

{"Compound": "CCN1CCCC1CNC(=O)c1cc(S(N)(=O)=O)ccc1OC (stereo not given) [SULPIRIDE]", "Result value": "Compound NOT metabolized"}
{"Compound": "OC(Cn1cncn1)(Cn1cncn1)c1ccc(F)cc1F [FLUCONAZOLE]", "Result value": "Compound metabolized"}
{"Compound": "CN1C(=O)CC(C)(c2ccccc2)C1=O (stereo not given) [METHSUXIMIDE]", "Result value": "Compound NOT metabolized"}
{"Compound": "Nc1c2c(nc3ccccc13)CCCC2 [TACRINE]", "Result value": "Compound NOT metabolized"}
{"Compound": "Cc1nc2n(c(=O)c1CCN1CCC(c3noc4cc(F)ccc34)CC1)CCCC2O (stereo not given) [PALIPERIDONE]", "Result value": "Compound metabolized"}

----------
# Target: UniProtKB B6W2J6
# Sequence (B6W2J6 whole entry): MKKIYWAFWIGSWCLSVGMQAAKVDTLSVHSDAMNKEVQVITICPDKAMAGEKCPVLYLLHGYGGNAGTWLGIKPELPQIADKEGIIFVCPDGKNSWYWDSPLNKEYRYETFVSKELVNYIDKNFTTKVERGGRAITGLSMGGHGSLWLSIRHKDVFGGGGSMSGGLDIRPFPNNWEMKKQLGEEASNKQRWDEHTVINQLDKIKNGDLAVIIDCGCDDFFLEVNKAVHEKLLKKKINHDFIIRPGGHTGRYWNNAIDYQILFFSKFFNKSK
# Protocol summary: The drug is tested on Bacteroides dorei strain: DSM17855 for biotransformation. The drug concentrations were measured before and after a 12-h incubation by liquid-chromatography-coupled mass spectrometry (LC–MS)
# Type: ADME
# Parameters: dose 2 uM
# Stated conditions: 2 µM

{"Compound": "COc1ccnc(C[S+]([O-])c2nc3ccc(OC(F)F)cc3[nH]2)c1OC (configuration not stated)", "Bacterial Biotransformation": "Compound metabolized"}
{"Compound": "CC(=O)Oc1ccc(C(c2ccc(OC(C)=O)cc2)c2ccccn2)cc1", "Bacterial Biotransformation": "Compound metabolized"}
{"Compound": "CC(=O)OCC(=O)[C@@]1(OC(C)=O)[C@@H](C)C[C@H]2[C@@H]3C[C@H](F)C4=CC(=O)C=C[C@]4(C)[C@@]3(F)[C@@H](O)C[C@@]21C [DIFLORASONE DIACETATE]", "Bacterial Biotransformation": "Compound NOT metabolized"}
{"Compound": "CC(=O)SCC(Cc1ccccc1)C(=O)NCC(=O)OCc1ccccc1 (configuration not stated)", "Bacterial Biotransformation": "Compound NOT metabolized"}
{"Compound": "Nc1ccc(/N=N/c2ccccc2)c(N)n1", "Bacterial Biotransformation": "Compound NOT metabolized"}
{"Compound": "CCN(CC)C(=O)/C(C#N)=C/c1cc(O)c(O)c([N+](=O)[O-])c1", "Bacterial Biotransformation": "Compound NOT metabolized"}
{"Compound": "C[C@]12CCC(=O)C=C1[C@@H]1C[C@@H]1[C@H]1[C@@H]3[C@@H]4C[C@@H]4[C@@]4(CCC(=O)O4)[C@@]3(C)CC[C@@H]12", "Bacterial Biotransformation": "Compound NOT metabolized"}
